Hello, the source for this data is the Immune Epitope Database (IEDB), in case you need it.

Biological target: HLA-B*27:03
Assay: IEDB peptide-MHC binding, purified MHC/competitive/fluorescence; filed as Kd, often an IC50 or EC50 that approximates it; bounds were set here for any values at or beyond the usual limits of such assays
Details: source organism: Influenza A virus (A/ruddy turnstone/Delaware/67/1998(H12N4))
reported_endpoint: Kd

[Q] So what does the record say about Kd for IVFMWAIHH ?
[A] ≥ 20 µM

====

Biological target: HLA-C*15:02
Test: IEDB peptide-MHC binding, purified MHC/direct/fluorescence; filed as Kd, often an IC50 or EC50 that approximates it; bounds were set here for any values at or beyond the usual limits of such assays
Conditions: source organism: Influenza A virus (A/swine/Italy/1509-6/97(H1N1))
reported_endpoint: Kd

[Q] # returns recorded Kd (system: HLA-C*15:02) for WMACHSAAF
[A] ≥ 20 µM
